Target: SARS-CoV Spike protein (SARS-CoV, UniProt P59594 14-1190)
Documented binding signal (fold over isotype control) across a set of binders
Express it in fold over isotype control; write the number only.

Worked examples, 3 binders total:
{"binder": "anti-coronavirus antibody 556 (antibody, V domains shown) VH: QVQLVESGGGVVQPGRSLRLSCAASGFTFSSYAMHWVRQAPGKGLEWVAVISYDGSDKYYADSVKGRVTISRDNSKNTLYLQMNSLRVEDTAVFYCAKDDCSGGVCFPDYWGQGTLVTVSS VL: QSALTQPASVSGSPGQSITISCTGTSSDVGGYNYVSWYQQHPGKAPKLMIYEVSIRPSGVSNRFSGSKSGNTASLTISGLQAEDEAAYYCSSYTSSSTLVFGGGTKLTVL", "quantitative-result": 1.09}
{"binder": "anti-coronavirus antibody 545 (antibody, V domains shown) VH: QVQLVQSGSELKKPGASVKVSCKASGYTFTSYAMNWVRQAPGQGLEWMGWINTNTGNPTYAQGFTGRFVFSLDTSVSTAYLQISVLKAEDTGVYYCARDHELPNSSSWFGHFEYWGQGTLVTVSS VL: SYELTQPPSVSVSPGQTARITCSGDALPKQYAYWYQQKAGQAPVLVIYKDSERRSGIPERFSGSSSGTTVTLTISGVQAEDEADYYCQSADSSGTSVVFGGGTKLTVL", "quantitative-result": 1.13}
{"binder": "anti-coronavirus antibody 566 (antibody, V domains shown) VH: QVQLVQSGAEVKKPGASVKVSCKASGYTFTSYAMHWVRQAPGQRLEWMGWINAGNGNTKYSQKFQGRVTITRDTSASTAYMELSSLRSEDTAVYYCARDLGVAVTLHPADFDYWGQGTLVTVSS VL: QSVLTQPPSVSGAPGQRVTISCTGSSSNIGAGYDVHWYQQLPGTAPKLLIYDNSNRPSGVPDRFSGSKSGTSASLAITGLQAEDEADYYCQSYDSSLSAVVFGGGTKLTVL", "quantitative-result": 0.97}

Lookup result for anti-coronavirus antibody 571 (antibody, V domains shown) VH: EVQLVESGGGLVQPGGSLRLSCAASGFTFSTYWMTWVRQAPGKGLEWVANIKHDGSGKYHVDSVKGRFTISRDNAKNSLYLQMNSLRAEDTAVYYCTRDEGGWYDYWGQGTLVTVSS VL: QSALTQPASVSGSPGQSITISCTGTSSDVGSYNPVSWYQQHPGKAPKVMIYEGSKRPSGVSNRFSGSKSGNTASLTISGLQAEDEADYYCCSYARSSTFVVFGGGTKLTVL ; measured binding signal (fold over isotype control): 1.28

In plain terms, anti-coronavirus antibody 546 (antibody, V domains shown) VH: QVQLVESGGGVVQPGRSLRLSCAASGFTFSSYGMHWVRQAPGKGLEWVAVIWYDGSNKYYADSVKGRFTISRDNSKNTLYLQMNSLRAEDTAVYYCARNCGGDCVAGDGFDYWGQGTLVTVSS VL: DIQMTQSPSSLSASVGDRVTITCRASQSISSYLNWYQQKPGKAPNLLIYAASSLQSGVPSRFSGSGSGTDFTLTISSLQPEDFATYYCQQSYSALTWTFGQGTKVEIK has a documented binding signal (fold over isotype control) of 1.18
